# PROTOCOL_SUMMARY: Cynomolgus monkey absorption test (pharmacokinetics)
# Format: in vivo, cynomolgus monkeys
# EXPERIMENTAL_CONDITIONS: both sexes, cynomolgus monkey, plasma, po, 60 mg/kg, cynomolgus monkeys, single oral 60 mg/kg
# Method: According to the Technical Guidelines for Non-clinical Pharmacokinetic Studies of Drugs and the results of in vitro metabolic species difference studies, liquid chromatography-tandem mass spectrometry (LC-MS/MS) was used in this pharmacokinetic study to fully verify the analytical method for the determination of ILB-2109 content in plasma (EDTA-K2 anticoagulation) of Sprague-Dawley rats and cynomolgus monkeys. The linear range of the method was 20.0~20000 nM. […]
MEASUREMENT_KIND: AUC(0-t) (µM·h)
# value in µM·h; strip the unit string

Q: Query (compound): Cc1cc(-c2c(-c3ccccc3)nc(N)n3nc(CO)nc23)cc(C(F)(F)F)n1 ; field requested: AUC(0-t)
Ans: 571

* * *

# PROTOCOL_SUMMARY: 4-week repeated-dose toxicity test in cynomolgus monkeys
# Assay type: in vivo
# EXPERIMENTAL_CONDITIONS: female, cynomolgus monkey, in vivo, 60 mg/kg
MEASUREMENT_KIND: AUC(0-t) (µg·h/mL)
Lab book: enter the figure in µg·h/mL, no units written.

Q: Dear colleague, I am looking for the recorded AUC(0-t) of the following compound: Cc1cc(-c2c(-c3ccccc3)nc(N)n3nc(CO)nc23)cc(C(F)(F)F)n1
Ans: 149

* * *

# PROTOCOL_SUMMARY: Cynomolgus monkey absorption test (pharmacokinetics)
# Assay type: in vivo, cynomolgus monkeys
# EXPERIMENTAL_CONDITIONS: both sexes, cynomolgus monkey, plasma; female and male cynomolgus monkeys, single intravenous injection 3 mg/kg; read-out: elimination half-life (T1/2) (converted)
MEASUREMENT_KIND: half-life
Give your result as the value with the unit written after it.

Q: # input molecule: Cc1cc(-c2c(-c3ccccc3)nc(N)n3nc(CO)nc23)cc(C(F)(F)F)n1 ; wanted: its half-life
Ans: 4.33 h

* * *

# SYSTEM_NAME: CYP2C19 (Homo sapiens)
# Construct: In vitro human liver microsome tests
# Sequence (P33261 whole entry): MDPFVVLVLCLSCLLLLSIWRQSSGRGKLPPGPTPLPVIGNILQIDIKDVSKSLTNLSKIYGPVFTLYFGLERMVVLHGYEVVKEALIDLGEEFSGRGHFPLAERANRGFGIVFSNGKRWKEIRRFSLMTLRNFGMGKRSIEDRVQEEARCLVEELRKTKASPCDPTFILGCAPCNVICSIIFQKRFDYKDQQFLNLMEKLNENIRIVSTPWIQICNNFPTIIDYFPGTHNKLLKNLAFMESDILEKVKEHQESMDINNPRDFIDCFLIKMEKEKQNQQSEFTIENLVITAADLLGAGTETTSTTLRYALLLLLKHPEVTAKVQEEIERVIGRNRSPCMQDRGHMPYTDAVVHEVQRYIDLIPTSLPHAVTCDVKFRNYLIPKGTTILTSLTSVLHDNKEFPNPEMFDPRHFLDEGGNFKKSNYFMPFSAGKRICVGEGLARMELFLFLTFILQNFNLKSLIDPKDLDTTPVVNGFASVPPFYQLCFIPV
# PROTOCOL_SUMMARY: Human liver microsome CYP inhibition (direct and time-dependent)
# EXPERIMENTAL_CONDITIONS: human liver microsomes
MEASUREMENT_KIND: pIC50
Worth noting: pIC50 values are minus log10 of concentrations stated in mol/L.

Q: Which measured pIC50 belongs to Cc1cc(-c2c(-c3ccccc3)nc(N)n3nc(CO)nc23)cc(C(F)(F)F)n1 , tested on CYP2C19 (Homo sapiens)?
Ans: 4.04

* * *

# PROTOCOL_SUMMARY: SD rat absorption test (pharmacokinetics)
# Assay type: in vivo, SD rats
# EXPERIMENTAL_CONDITIONS: Sprague-Dawley, rat, plasma; female SD rats, single oral 40 mg/kg; read-out: peak concentrations (Cmax)
# Procedure: According to the Technical Guidelines for Non-clinical Pharmacokinetic Studies of Drugs and the results of in vitro metabolic species difference studies, liquid chromatography-tandem mass spectrometry (LC-MS/MS) was used in this pharmacokinetic study to fully verify the analytical method for the determination of ILB-2109 content in plasma (EDTA-K2 anticoagulation) of Sprague-Dawley rats and cynomolgus monkeys. The linear range of the method was 20.0~20000 nM. […]
MEASUREMENT_KIND: Cmax (µM)
Hi! Could you send only the number? It should be in µM, unit omitted.

Q: May I ask what Cmax has been recorded for Cc1cc(-c2c(-c3ccccc3)nc(N)n3nc(CO)nc23)cc(C(F)(F)F)n1 ?
Ans: 124

* * *

# PROTOCOL_SUMMARY: Cynomolgus monkey absorption test (pharmacokinetics)
# Type: in vivo, cynomolgus monkeys
# EXPERIMENTAL_CONDITIONS: both sexes, cynomolgus monkey, plasma, po, 15 mg/kg, cynomolgus monkeys, oral 15 mg/kg twice a day for 7 days, Day 7
MEASUREMENT_KIND: AUC(0-t) (µM·h)
Express your answer in µM·h, writing the number without its unit.

Q: # get_value(readout='AUC(0-t)', item= Cc1cc(-c2c(-c3ccccc3)nc(N)n3nc(CO)nc23)cc(C(F)(F)F)n1 )
Ans: 268

* * *

# PROTOCOL_SUMMARY: 4-week repeated-dose toxicity test in rats
# Parameters: species or system SD rats
# EXPERIMENTAL_CONDITIONS: male, Sprague-Dawley, rat, in vivo, 60 mg/kg
MEASUREMENT_KIND: AUC(0-t) (µg·h/mL)
Supply the numeric figure in µg·h/mL, leaving out any unit text.

Q: # lookup: AUC(0-t) of Cc1cc(-c2c(-c3ccccc3)nc(N)n3nc(CO)nc23)cc(C(F)(F)F)n1 [ILB-2109]
Ans: 114

* * *

# PROTOCOL_SUMMARY: Cynomolgus monkey absorption test (pharmacokinetics)
# Assay type: in vivo, cynomolgus monkeys
# EXPERIMENTAL_CONDITIONS: both sexes, cynomolgus monkey, plasma, iv, 3 mg/kg, female and male cynomolgus monkeys, single intravenous injection 3 mg/kg
# Experimental: According to the Technical Guidelines for Non-clinical Pharmacokinetic Studies of Drugs and the results of in vitro metabolic species difference studies, liquid chromatography-tandem mass spectrometry (LC-MS/MS) was used in this pharmacokinetic study to fully verify the analytical method for the determination of ILB-2109 content in plasma (EDTA-K2 anticoagulation) of Sprague-Dawley rats and cynomolgus monkeys. The linear range of the method was 20.0~20000 nM. […]
MEASUREMENT_KIND: AUC(0-t)
Don't forget the unit after the value.

Q: # input compound: Cc1cc(-c2c(-c3ccccc3)nc(N)n3nc(CO)nc23)cc(C(F)(F)F)n1 ; wanted: its AUC(0-t)
Ans: 39.5 µM·h

Numbers sourced from patent EP4813990A1.
